- test_protocol: Stability of ITZA/POSA in solvent vehicles (HPLC)
- Assay type: physicochemical
- condition_summary: H3D/10% Dex., day 0
readout_name: stability of ITZA

{"molecule": "CCC(C)n1ncn(-c2ccc(N3CCN(c4ccc(OCC5COC(Cn6cncn6)(c6ccc(Cl)cc6Cl)O5)cc4)CC3)cc2)c1=O (stereo not shown) [ITZA, itraconazole]", "reported_result": "100%"}

----------
- test_protocol: Stability of ITZA/POSA in solvent vehicles (HPLC)
- Format: physicochemical
- condition_summary: H3D/10% Dex., day 2
readout_name: stability of ITZA

{"compound": "CCC(C)n1ncn(-c2ccc(N3CCN(c4ccc(OCC5COC(Cn6cncn6)(c6ccc(Cl)cc6Cl)O5)cc4)CC3)cc2)c1=O (stereo not shown) [ITZA, itraconazole]", "reported_result": "98%"}

----------
- test_protocol: Stability of ITZA/POSA in solvent vehicles (HPLC)
- Type: physicochemical
- condition_summary: H3D/5% dex., day 5
readout_name: stability of ITZA (%)

{"compound": "CCC(C)n1ncn(-c2ccc(N3CCN(c4ccc(OCC5COC(Cn6cncn6)(c6ccc(Cl)cc6Cl)O5)cc4)CC3)cc2)c1=O (stereo not shown)", "readout_name": "stability of ITZA", "uom": "%", "reported_result": 93}

----------
- test_protocol: Stability of ITZA/POSA in solvent vehicles (HPLC)
- Assay type: physicochemical
- condition_summary: H3G/sal., day 5
readout_name: stability of ITZA (%)

{"compound": "CCC(C)n1ncn(-c2ccc(N3CCN(c4ccc(OCC5COC(Cn6cncn6)(c6ccc(Cl)cc6Cl)O5)cc4)CC3)cc2)c1=O (stereo not shown) [ITZA, itraconazole]", "readout_name": "stability of ITZA", "reported_result": 38}

----------
- test_protocol: Maximum solubility of ITZA and azole analogues in solvents (HPLC)
- Format: physicochemical
- condition_summary: solvent B (with Tween 80), aqueous with cosolvent or surfactant or cyclodextrin, thermodynamic from solid, solvent B (with Tween 80); read-out: Maximum solubility
readout_name: solubility

{"compound": "CCC(C)n1ncn(-c2ccc(N3CCN(c4ccc(OCC5COC(Cn6cncn6)(c6ccc(Cl)cc6Cl)O5)cc4)CC3)cc2)c1=O (stereo not shown) [ITZA, itraconazole]", "reported_result": "29 mg/mL"}

----------
- test_protocol: Stability of ITZA/POSA in solvent vehicles (HPLC)
- Format: physicochemical
- condition_summary: H3D, day 1
readout_name: stability of ITZA (%)

{"molecule": "CCC(C)n1ncn(-c2ccc(N3CCN(c4ccc(OCC5COC(Cn6cncn6)(c6ccc(Cl)cc6Cl)O5)cc4)CC3)cc2)c1=O (stereo not shown)", "reported_result": 94}

----------
- test_protocol: Maximum solubility of ITZA and azole analogues in solvents (HPLC)
- Format: physicochemical
- condition_summary: benzyl alcohol, organic solvent or mixture, thermodynamic from solid, in Benzyl alcohol; read-out: Maximum solubility
readout_name: solubility

{"molecule": "CCC(C)n1ncn(-c2ccc(N3CCN(c4ccc(OCC5COC(Cn6cncn6)(c6ccc(Cl)cc6Cl)O5)cc4)CC3)cc2)c1=O (stereo not shown)", "reported_result": "> 128 mg/mL"}

----------
- test_protocol: Stability of ITZA/POSA in solvent vehicles (HPLC)
- Assay type: physicochemical
- condition_summary: H3D/sal., day 5

{"compound": "CCC(C)n1ncn(-c2ccc(N3CCN(c4ccc(OCC5COC(Cn6cncn6)(c6ccc(Cl)cc6Cl)O5)cc4)CC3)cc2)c1=O (stereo not shown) [ITZA, itraconazole]", "stability of ITZA (%)": 90}

----------
- test_protocol: Maximum solubility of ITZA and azole analogues in solvents (HPLC)
- Type: physicochemical
- condition_summary: 6N HCl, aqueous buffer, thermodynamic from solid, in 6N HCl; read-out: Maximum solubility

{"compound": "CCC(C)n1ncn(-c2ccc(N3CCN(c4ccc(OCC5COC(Cn6cncn6)(c6ccc(Cl)cc6Cl)O5)cc4)CC3)cc2)c1=O (stereo not shown) [ITZA, itraconazole]", "solubility, µg/mL": 7410}

----------
- test_protocol: Maximum solubility of ITZA and azole analogues in solvents (HPLC)
- Format: physicochemical
- condition_summary: 50% acetic acid, aqueous with cosolvent or surfactant or cyclodextrin, thermodynamic from solid, in 50% Acetic acid; read-out: Maximum solubility
readout_name: solubility (mg/mL)

{"molecule": "CCC(C)n1ncn(-c2ccc(N3CCN(c4ccc(OCC5COC(Cn6cncn6)(c6ccc(Cl)cc6Cl)O5)cc4)CC3)cc2)c1=O (stereo not shown)", "uom": "mg/mL", "reported_result": 12.9}

----------
- test_protocol: Stability of ITZA/POSA in solvent vehicles (HPLC)
- Type: physicochemical
- condition_summary: H3G/sal., day 4

{"compound": "CCC(C)n1ncn(-c2ccc(N3CCN(c4ccc(OCC5COC(Cn6cncn6)(c6ccc(Cl)cc6Cl)O5)cc4)CC3)cc2)c1=O (stereo not shown) [ITZA, itraconazole]", "stability of ITZA, %": 70}

----------
- test_protocol: Maximum solubility of ITZA and azole analogues in solvents (HPLC)
- Format: physicochemical
- condition_summary: 2M citric acid, aqueous buffer, thermodynamic from solid, in 2M citric acid; read-out: Maximum solubility
readout_name: solubility

{"compound": "CCC(C)n1ncn(-c2ccc(N3CCN(c4ccc(OCC5COC(Cn6cncn6)(c6ccc(Cl)cc6Cl)O5)cc4)CC3)cc2)c1=O (stereo not shown)", "readout_name": "solubility", "reported_result": "3220 µg/mL"}

----------
- test_protocol: Maximum solubility of ITZA and azole analogues in solvents (HPLC)
- Type: physicochemical
- condition_summary: organic solvent or mixture, thermodynamic from solid, benzyl alcohol containing solvent H3, room temp; read-out: Maximum solubility
readout_name: solubility

{"compound": "CCC(C)n1ncn(-c2ccc(N3CCN(c4ccc(OCC5COC(Cn6cncn6)(c6ccc(Cl)cc6Cl)O5)cc4)CC3)cc2)c1=O (stereo not shown)", "reported_result": "~31.4 mg/mL"}

----------
- test_protocol: Stability of ITZA/POSA in solvent vehicles (HPLC)
- Type: physicochemical
- condition_summary: H3D, day 2

{"compound": "CCC(C)n1ncn(-c2ccc(N3CCN(c4ccc(OCC5COC(Cn6cncn6)(c6ccc(Cl)cc6Cl)O5)cc4)CC3)cc2)c1=O (stereo not shown)", "stability of ITZA, %": 95}

----------
- test_protocol: Maximum solubility of ITZA and azole analogues in solvents (HPLC)
- Format: physicochemical
- condition_summary: propylene glycol, organic solvent or mixture, thermodynamic from solid, in Propylene glycol; read-out: Maximum solubility

{"compound": "CCC(C)n1ncn(-c2ccc(N3CCN(c4ccc(OCC5COC(Cn6cncn6)(c6ccc(Cl)cc6Cl)O5)cc4)CC3)cc2)c1=O (stereo not shown)", "solubility": "140 µg/mL"}

----------
- test_protocol: Maximum solubility of ITZA and azole analogues in solvents (HPLC)
- Assay type: physicochemical
- condition_summary: acetic acid, organic solvent or mixture, thermodynamic from solid, in Acetic acid; read-out: Maximum solubility

{"compound": "CCC(C)n1ncn(-c2ccc(N3CCN(c4ccc(OCC5COC(Cn6cncn6)(c6ccc(Cl)cc6Cl)O5)cc4)CC3)cc2)c1=O (stereo not shown)", "solubility / mg/mL": 144}

----------
- test_protocol: Stability of ITZA/POSA in solvent vehicles (HPLC)
- Format: physicochemical
- condition_summary: H3G/10% dex., day 3
readout_name: stability of ITZA (%)

{"compound": "CCC(C)n1ncn(-c2ccc(N3CCN(c4ccc(OCC5COC(Cn6cncn6)(c6ccc(Cl)cc6Cl)O5)cc4)CC3)cc2)c1=O (stereo not shown)", "reported_result": 98}

----------
- test_protocol: Stability of ITZA/POSA in solvent vehicles (HPLC)
- Assay type: physicochemical
- condition_summary: H3G/10% dex., day 4
readout_name: stability of ITZA (%)

{"compound": "CCC(C)n1ncn(-c2ccc(N3CCN(c4ccc(OCC5COC(Cn6cncn6)(c6ccc(Cl)cc6Cl)O5)cc4)CC3)cc2)c1=O (stereo not shown)", "reported_result": 107}

----------
- test_protocol: Maximum solubility of ITZA and azole analogues in solvents (HPLC)
- Assay type: physicochemical
- condition_summary: PEG 200, organic solvent or mixture, thermodynamic from solid, in PEG 200; read-out: Maximum solubility

{"compound": "CCC(C)n1ncn(-c2ccc(N3CCN(c4ccc(OCC5COC(Cn6cncn6)(c6ccc(Cl)cc6Cl)O5)cc4)CC3)cc2)c1=O (stereo not shown)", "uom": "µg/mL", "solubility": 1450}

----------
- test_protocol: Maximum solubility of ITZA and azole analogues in solvents (HPLC)
- Type: physicochemical
- condition_summary: normal saline, saline or isotonic, thermodynamic from solid, in Normal saline; read-out: Maximum solubility
- Protocol: ITZA and its analogues were dissolved in various solvents incubated at 37° C. for 30 minutes, cooled down to room temperature, centrifuged at 14,000 rpm for 1 min. The supernatant was analyzed using HPLC to determine the maximum solubility of ITZA and its azole analogues. In a first step the maximum ITZA solubility in various single solvents was determined. […] The supernatant was analyzed using HPLC to determine the maximum solubility of the respective agent. […]

{"compound": "CCC(C)n1ncn(-c2ccc(N3CCN(c4ccc(OCC5COC(Cn6cncn6)(c6ccc(Cl)cc6Cl)O5)cc4)CC3)cc2)c1=O (stereo not shown) [ITZA, itraconazole]", "uom": "µg/mL", "solubility": 480}

Where these numbers come from: patent US10307418B2
